These data points were gathered from ChEMBL document CHEMBL5329201.

Organism: Homo sapiens
assay.procedure: Inhibition of His-tagged human recombinant BRPF1B bromodomain using biotinylated H4 (1 to 21)K5/8/12/16Ac peptide as substrate at 2 uM incubated for 0.5 hrs by AlphaScreen assay relative to control
Lab note: compare inhibition against 40%. Equal or greater, write t. Smaller, write f.

Could you please find out whether `COC(=O)c1cc(NC(=O)c2ccccc2)c2[nH]c(C)c(C(C)=O)c2c1` has inhibition that meets 40% or exceeds it? f

Let us now turn to `CCOC(=O)Nc1cc(C(=O)OC)cc2c(C(C)=O)c(C)[nH]c12` t

Let us now turn to `CCCC(=O)Nc1cc(C(=O)OC)cc2c(C(C)=O)c(C)[nH]c12` f

Let us now turn to `COC(=O)c1cc(NS(=O)(=O)c2ccccc2OC)c2[nH]c(C)c(C(C)=O)c2c1` t

Let us now turn to `COC(=O)c1cc(NS(=O)(=O)c2ccccc2)c2[nH]c(C)c(C(C)=O)c2c1` f

Let us now turn to `CCOC(=O)Nc1cc(C(=O)OC)cc2c(C(C)=O)c(C)n(C)c12` f

Let us now turn to `COc1ccccc1C(=O)Nc1cc2c(cc1N1CCCC1)n(C)c(=O)n2C` t

Let us now turn to `COC(=O)c1cc(NC(=O)Nc2ccccc2)c2[nH]c(C)c(C(C)=O)c2c1` f

Let us now turn to `CCNC(=O)Nc1cc(C(=O)OC)cc2c(C(C)=O)c(C)[nH]c12` t
